Where these numbers come from: ChEMBL document CHEMBL1201862

// reported GI50 for each item listed
- Tested on: HCT-15
Express your answer in µM, writing the number without its unit.

Reference set, count: 2
- C=C1C(=O)O[C@@H]2C[C@@]3(C)CCC[C@H](C)C3=C[C@H]12 [HELENINE]: 4.3
- C=CCN(c1cc(OC)c2[nH]c(C(=O)OCC)c(C)c2c1[N+](=O)[O-])S(C)(=O)=O: 25.6

Note: attention shifts to another entry.
Exam item: Please look up its GI50: "O=C(c1cc(Cl)ccc1Cl)N1CCN(c2cccc(Cl)c2)CC1"
Marked response: 8.85

----------
- Test system: COLO 205
- protocol-details: NCI tumour cell line growth inhibition, 48 h
The source made the active and inactive calls. Cut-off read from the data, not from the text of the source: active = GI50 up to about 1.1 µM and inactive = higher.
experimental-endpoint: GI50

- Cc1ccc([N+](=O)[O-])c2c(NCCNC(=O)Cn3ccnc3[N+](=O)[O-])ccnc12: 41 µM (inactive)
- CCC1NCC(=O)c2c1[nH]c1ccccc21 (stereo unspecified): > 100 µM (inactive)
- CCOC(=O)C1=C(O)C(=O)c2cc(C)ccc2C1=O: 49.8 µM (inactive)
- Cc1c2cc[n+](C)cc2c(C)c2c1[nH]c1ccc(Oc3ccccc3)cc12: 1.1 µM (active)
- Nc1ccc(C2=Nc3ccccc3SC(c3ccccc3O)C2)cc1 (stereo unspecified): 45.1 µM (inactive)

Exam item: So what GI50 did O=C(C/C(=N/O)C(=O)NC1=C(Cl)C(=O)c2ccccc2C1=O)CC(c1ccccc1)c1c(O)c2ccccc2oc1=O (stereo unspecified) get with COLO 205?
Marked response: 13.4 µM (inactive)

Exam item: # query: GI50 | item COc1cc(C2c3cc4c(cc3[C@@H](NCCN3CCCCC3)C3COC(=O)[C@H]23)OCO4)cc(OC)c1O (stereo partly specified) | system: COLO 205
Marked response: 1.01 µM (active)

Exam item: Kindly state the measured GI50 obtained for "C=CCNC(=S)N/C=C(\C(=O)OCC)C(=O)C(=O)OCC" with COLO 205.
Marked response: > 100 µM (inactive)

Exam item: Give COLO 205 GI50 for "COc1ccc(OC)c(NC(=O)C2=C(C)NC(C)=C(C(=O)Nc3cc(OC)ccc3OC)C2c2ccco2)c1"
Marked response: > 100 µM (inactive)

Exam item: Lab note: need GI50 for "CC[C@@]1(O)C(=O)OCc2c1cc1n(c2=O)Cc2c-1nc1ccccc1c2/C=N\NC(=O)CN" on COLO 205, anyone have it?
Marked response: 15.6 µM (inactive)

Exam item: What GI50 appears in the records for this compound with COLO 205? "Cc1c(N2CCOCC2)nc2ccc(Cl)cc2c1-c1ccccc1"
Marked response: > 100 µM (inactive)

Exam item: Please provide the recorded GI50 for O=C1C2C(c3ccccc3)NC(c3ccccc3)C1C(c1ccccc1)NC2c1ccccc1 (stereo unspecified) , tested on COLO 205.
Marked response: > 100 µM (inactive)

Exam item: Could you share what GI50 was measured for "CCOc1ccc2nc(NC(NC(=O)c3cccnc3)(C(F)(F)F)C(F)(F)F)sc2c1" , tested on COLO 205?
Marked response: 34.1 µM (inactive)

Exam item: Provide the documented GI50 with COLO 205 as the system for COc1ccc2cc3[n+](cc2c1O)CCc1cc2c(cc1-3)OCO2 [BERBERRUBINE CHLORIDE]
Marked response: > 100 µM (inactive)

Exam item: Form field: GI50 recorded for "Nc1ccc(C(=O)c2cn(CCN3CCOCC3)c3ccccc23)c2ccccc12" with COLO 205 (enter value)
Marked response: 24.8 µM (inactive)

Exam item: Give GI50 (COLO 205) of the following compound: "Cc1ccc(O)c(/N=N/c2ccc(S(=O)(=O)O)cc2)n1"
Marked response: > 100 µM (inactive)
